Data provenance: patent US8895503B2

experimental_protocol: Nasal administration of insulin with peptides of SEQ ID NOs:1 to 6 (Example 5)
assay_context: male, SD, rat, in vivo, inhaled or intranasal
Where no end group is shown, it is not given here.
measurement_type: Tmax (min)

[[record]]
substance = "KQIRIWFQNKKMRWRR-OH [SEQ ID NO: 5]"
assay_value = 16.0

[[record]]
substance = "KQIKIWFQNKKMKWKK-OH [SEQ ID NO: 4]"
assay_value = 11.3

[[record]]
substance = "KKWKMRRNQFWIKIQR-OH [SEQ ID NO: 2]"
assay_value = 11.7

[[record]]
substance = "RQIRIWFQNRRMRWRR-OH [SEQ ID NO: 3]"
assay_value = 18.3

